biological target: DRD4 (D4.4 variant) (Homo sapiens); assay: Gαi/o-mediated cAMP inhibition (GloSensor); type: cell-based
observation type: EC50

Identify EC50 associated with the molecule CC(CCc1ccccc1[N+](=O)[O-])NCC1(O)CCCCC1 (stereo not shown) [O7LE6]
> 10 µM

====

biological target: DRD4 (D4.4 variant) wild-type (Homo sapiens, UniProt P21917); assay: Radioligand competition binding, [3H]-N-methylspiperone; details: DRD4; [3H]-methylspiperone (0.8-1.0 nM); read-out: Ki
pKi: −log10 of the molar value.
observation type: pKi

1) CCOc1cccc2cc(C(C)NCC(C)(C)O)oc12 (racemic)    < 5.00

Identify pKi associated with the compound CCOc1cccc2cc(C(C)NCC3(O)CCCCCC3)oc12 (centres unmarked)
5.39

Identify pKi associated with the compound CCOc1cccc2cc(C(C)NCC3(O)CCCCCCC3)oc12 (centres unmarked)
5.46

Identify pKi associated with the compound CCOc1cccc2cc([C@@H](C)NCC3(O)CCCCC3)oc12
< 5.00
